System: LOC_OS02G54510-cb004
Assay: thermal shift delta Tm vs DMSO control; higher = stronger stabilization (binding);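 also: purified Escherichia coli-expressed rice kinase domain construct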
Settings: 12.5 µM; protein concentration 2 µM
Label condition met when thermal shift delta Tm >= 0.4 °C; otherwise condition not met.

Worked cases, answers included:
• Cc1cc(N2CCOCC2)cc2[nH]c(-c3c(NC[C@@H](O)c4cccc(Cl)c4)cc[nH]c3=O)nc12 = condition met
• COc1ncc(-c2ccc3nccc(-c4ccnnc4)c3c2)cc1NS(=O)(=O)c1ccc(F)cc1F = condition met

# input Could you verify whether the entry CNc1nc(Nc2cnn([C@H]3CCN(C4COC4)C[C@@H]3F)c2Cl)ncc1C(F)(F)F shows thermal shift delta Tm of no less than 0.4 °C?
# output condition not met

# input Could you verify whether the entry C[C@@H]1COCCN1c1cc(=O)n2c(n1)N(Cc1cncc(Cl)c1)[C@H](C(F)(F)F)CC2 shows thermal shift delta Tm of no less than 0.4 °C?
# output condition not met

# input Could you verify whether the entry C=CC(=O)Nc1cccc(Oc2nc(Nc3ccc(N4CCN(C)CC4)cc3OC)ncc2Cl)c1 shows thermal shift delta Tm of no less than 0.4 °C?
# output condition met

* * *

Test system: LOC_OS02G14120-cb001
Assay: thermal shift delta Tm vs DMSO control; higher = stronger stabilization (binding)
Conditions: 12.5 µM; protein concentration 2 µM
Where a name gives a salt, the structure may show the parent alone.
measurement-kind: thermal shift delta Tm (°C)
Value expressed in °C; do not type the unit.

// below: answered molecules
* CNC(=O)c1cc(Oc2ccc(NC(=O)Nc3ccc(Cl)c(C(F)(F)F)c3)cc2)ccn1 [Sorafenib Tosylate] | 3.45
* O=C(O)[C@]1(Cc2cccc(Nc3nccs3)n2)CC[C@@H](Oc2cccc(Cl)c2F)CC1 | 13.5
* O=C(O)c1ccc2c3c1cccc3c(=O)n1c3ccccc3nc21 | 3.53

Given item CNC(=O)c1cccc(-c2ccc3c(N4CCOC[C@@H]4C)nc(N4CCOC[C@@H]4C)nc3n2)c1 , the value recorded as its thermal shift delta Tm is 0

* * *

Test system: LOC_OS03G12390-cb001
Test: thermal shift delta Tm vs DMSO control; higher = stronger stabilization (binding)
Details: 12.5 µM; protein concentration 2 µM
measurement-kind: thermal shift delta Tm
Returns: string containing the number followed by the unit.

// below: answered compounds
- N#Cc1c(Oc2ccc(F)c(NC(=O)Cc3cccc(C(F)(F)F)c3)c2)ccc2nc(NC(=O)C3CC3)sc12: 0.15 °C
- Cc1c(C(=O)N2CCOc3ccc(-c4ccc(N)nc4)cc3C2)ccc(S(C)(=O)=O)c1F: 0.38 °C
- COc1cc(N2CCC(N3CCN(C)CC3)CC2)ccc1Nc1ncnc(Nc2ccccc2S(=O)(=O)C(C)C)n1: 1.69 °C

Please examine the following record next.
Given item CC[C@H](CO)Nc1nc(NCc2ccccc2)c2ncn(C(C)C)c2n1 [Roscovitine (Seliciclib,CYC202)] , the value recorded as its thermal shift delta Tm is 0.14 °C

* * *

Test system: LOC_OS07G06570-cb004
Test: thermal shift delta Tm vs DMSO control; higher = stronger stabilization (binding)
Conditions: 12.5 µM; protein concentration 2 µM
Counter-ions that a name gives are not always drawn.
Each record's thermal shift delta Tm is compared with range A = under 0.6 °C, range B = from 0.6 °C up to 1 °C, range C = 1 °C and over to give its class.

Worked cases, answers included:
- CC[C@H](CO)Nc1nc(NCc2ccccc2)c2ncn(C(C)C)c2n1 [Roscovitine (Seliciclib,CYC202)]: range B
- Cc1cnc(Nc2ccc(N3CCN(C)CC3)cc2)nc1Nc1cccc(S(=O)(=O)NC(C)(C)C)c1: range B
- CC(C)(CO)n1cc(C(=O)c2cncc(NC(=O)Cc3ccc(Cl)cn3)c2)c2cnc(N)nc21: range C
- COc1cc2c(Oc3ccc4[nH]c(C)cc4c3F)ncnc2cc1OCCCN1CCCC1: range B
- N=C(N)NC(=N)NCCc1ccccc1 [Phenformin HCl]: range A
- C=CC(=O)Nc1ccc2ncnc(Nc3ccc(OCc4cccc(F)c4)c(Cl)c3)c2c1: range C

# input Input Nc1ccc(-c2ccc3ncc4ccc(=O)n(-c5cccc(C(F)(F)F)c5)c4c3c2)cn1 ; output its category
# output range C

# input Input CC(C)c1cnn2c(NCc3ccccc3-n3cccn3)nc(OC3CCCNC3)nc12 (stereo not given) ; output its category
# output range A

* * *

System: LOC_OS01G14860-cb001
Test: thermal shift delta Tm vs DMSO control; higher = stronger stabilization (binding)
Conditions: 12.5 µM; protein concentration 2 µM
Each record's thermal shift delta Tm is compared with b0 (below 0.7 °C), b1 (0.7 °C to below 2 °C), b2 (2 °C or more) to give its class.

- C=C[C@@](C)(/C=C/c1ccc(O)cc1)CCC=C(C)C: b1

# input Input COc1cc2c(c(OC)c1OC)-c1c(cc3c(c1OC)OCO3)CC(C)C(C)C2 (centres undefined) [Schisandrin B (Sch B)] ; output its category
# output b0

# input Input Oc1c2ccccc2c2c3c(cccc13)N=N2 ; output its category
# output b2

# input Input N[C@@H]1CCCN(c2c(/C=C3\SC(=O)NC3=O)cccc2-c2ccccc2)C1 ; output its category
# output b0

# input Input CN1CCN(c2nc(C3=C(c4c[nH]c5ccccc45)C(=O)NC3=O)c3ccccc3n2)CC1 ; output its category
# output b2

# input Input O=C(Nc1ccc(-c2ccnc(Nc3ccc(N4CCOCC4)cc3)n2)cc1)C1CCCN1 (centres undefined) ; output its category
# output b1

# input Input CC(C)c1ccc2oc3nc(N)c(C(=O)O)cc3c(=O)c2c1 ; output its category
# output b0

# input Input O=C(Nc1cc(C(F)(F)F)cc(C(F)(F)F)c1)c1cc(Cl)ccc1O ; output its category
# output b1

# input Input CCOc1cc2ncc(C#N)c(Nc3ccc(OCc4ccccn4)c(Cl)c3)c2cc1NC(=O)/C=C/CN(C)C ; output its category
# output b2

* * *

Test system: LOC_OS05G07850-cb002
Assay: thermal shift delta Tm vs DMSO control; higher = stronger stabilization (binding)
Details: 12.5 µM; protein concentration 2 µM
measurement-kind: thermal shift delta Tm (°C)
Value expressed in °C; do not type the unit.

// below: answered compounds
• COc1cc(-c2cc(-c3ccc(N4CCNCC4)cc3)cnc2C)cc(OC)c1OC = 3.83
• Cc1ccc(S(=O)(=O)/C=C/C#N)cc1 = 7.56
• Cc1cc(CS(=O)(=O)c2ccccc2)cc(OCc2ccc(CN3CCC[C@@H]3CO)cc2)c1 = -0.44

Given item COc1cc2ncc(-c3ccccc3)nc2cc1OC , the value recorded as its thermal shift delta Tm is 5.59

Given item CCN1C(=O)CNc2ncc(-c3ccc(-c4nc[nH]n4)nc3C)nc21 , the value recorded as its thermal shift delta Tm is 0.15

Given item COc1cc(OC)cc(-c2cc3cnc(N)nc3nc2NC(=O)NC(C)(C)C)c1 , the value recorded as its thermal shift delta Tm is 1.66

* * *

System: LOC_OS01G01410-cb001
Experiment: thermal shift delta Tm vs DMSO control; higher = stronger stabilization (binding)
Conditions: 12.5 µM; protein concentration 2 µM
Examples of compounds with documented thermal shift delta Tm follow.
Value expressed in °C; do not type the unit.

// below: answered compounds
* O=C(NCCO)c1cccc(-c2cc(Nc3ccc(OC(F)(F)F)cc3)ncn2)c1 | 0.32
* CCOc1cc2ncc(C#N)c(Nc3ccc(OCc4ccccn4)c(Cl)c3)c2cc1NC(=O)/C=C/CN(C)C | 1.9
* CN1CCN(C2CCN(C(=O)Nc3cc(Oc4ccc(NC(=O)C5(C(=O)Nc6ccc(F)cc6)CC5)c(F)c4)ccn3)CC2)CC1 [Golvatinib (E7050)] | -0.03

Given item C=CC(=O)Nc1ccc2ncnc(Nc3ccc(OCc4cccc(F)c4)c(Cl)c3)c2c1 , the value recorded as its thermal shift delta Tm is 4.44

* * *

Test system: LOC_OS01G01410-cb001
Test: thermal shift delta Tm vs DMSO control; higher = stronger stabilization (binding)
Details: 12.5 µM; protein concentration 2 µM
Label 1 when thermal shift delta Tm >= 0.4 °C; otherwise 0.

Worked cases, answers included:
- CC(=O)c1c(C)c2cnc(Nc3ccc(N4CCNCC4)cn3)nc2n(C2CCCC2)c1=O: 1
- Cn1cc(-c2ccc3ncc(Cc4ccc5ncccc5c4)n3n2)cn1: 1
- OC1CCC(Nc2ncc3nc(Nc4c(F)cc(F)cc4F)n([C@H]4CCOC4)c3n2)CC1 (stereo not given in full) [Tanzisertib(CC-930)]: 0
- Oc1ccc(Nc2nc(-c3ccc(Cl)cc3)cs2)cc1: 1

Here's the next entry for you.
# input Could you verify whether the entry Cc1nc(Nc2cnn(C3CCNCC3)c2)nc2c1N(C)C(=O)c1cc3ccccc3cc1N2C shows thermal shift delta Tm of no less than 0.4 °C?
# output 0

* * *

System: LOC_OS01G70970-cb002
Assay: thermal shift delta Tm vs DMSO control; higher = stronger stabilization (binding)
Conditions: 12.5 µM; protein concentration 2 µM
Label 1.0 when thermal shift delta Tm >= 0.2 °C; otherwise 0.0.

Worked cases, answers included:
• COc1ccc(CCNCc2ccc(OCc3ccc(Cl)nc3)c(OC)c2)cc1OC = 1.0
• CCC[C@H](NC(=O)/C(C#N)=C/c1cccc(Br)n1)c1ccccc1 [Degrasyn (WP1130)] = 0.0
• COc1nccnc1NS(=O)(=O)c1ccc(NC(=O)/C=C/c2ccc([N+](=O)[O-])s2)cc1 [Necrosulfonamide] = 0.0

# input Could you verify whether the entry CCN(CC)CCCCNc1ncc2cc(-c3cc(OC)cc(OC)c3)c(NC(=O)NC(C)(C)C)nc2n1 shows thermal shift delta Tm of no less than 0.2 °C?
# output 0.0

# input Could you verify whether the entry Cc1cc(N2CCOCC2)cc2[nH]c(-c3c(NC[C@@H](O)c4cccc(Cl)c4)cc[nH]c3=O)nc12 shows thermal shift delta Tm of no less than 0.2 °C?
# output 1.0

# input Could you verify whether the entry O=c1c(O)c(-c2cc(O)c(O)c(O)c2)oc2cc(O)cc(O)c12 shows thermal shift delta Tm of no less than 0.2 °C?
# output 1.0

# input Could you verify whether the entry COc1cc2nccc(Oc3ccc(NC(=O)Nc4cc(C)on4)c(Cl)c3)c2cc1OC shows thermal shift delta Tm of no less than 0.2 °C?
# output 1.0

# input Could you verify whether the entry Nc1ccc(C(=O)Nc2cccc(-c3nc(N4CCOCC4)c4oc5ncccc5c4n3)c2)cn1 shows thermal shift delta Tm of no less than 0.2 °C?
# output 1.0
